protocol summary: Photostability, percentage remaining undegraded under illumination or in the dark
protocol conditions: percentage remaining undegraded after 4 hours illumination
measured quantity: Photostability 4 hours (%)
Answers are plain numbers, in %.

{"chemical structure": "Cc1ccc2c(c1)C(=O)[C@]1(O)CCN(c3ccc4ncc(N)cc4c3)C1=N2", "reported result": 86.2}
{"chemical structure": "Cc1ccc2c(c1)C(=O)[C@]1(O)CCN(c3ccc4occc4c3)C1=N2", "reported result": 39.4}
{"chemical structure": "Cc1cc2c(s1)N=C1N(c3ccc4ccoc4c3)CC[C@@]1(O)C2=O", "reported result": 89.8}

Kindly review the next molecule as well.
Query: Look up Photostability 4 hours: Cc1cc2c(cc1C)C(=O)[C@]1(O)CCN(c3ccc4c(c3)NCCC4)C1=N2
Response: 85.9

* * *

protocol summary: Photostability, percentage remaining undegraded under illumination or in the dark
protocol conditions: percentage remaining undegraded after 24 hours illumination
measured quantity: Photostability 24 hours (%)
Give bare numbers, in %.

{"molecule": "CCc1cc(N2CC[C@@]3(O)C(=O)c4cc(C)c(C)cc4N=C23)ccn1 [BPN-0028864]", "measured quantity": "Photostability 24 hours", "output unit": "%", "reported result": 88.4}
{"molecule": "Cc1ncc(N2CC[C@@]3(O)C(=O)c4cc(F)c(C(F)(F)F)cc4N=C23)s1 [BPN-0026667]", "measured quantity": "Photostability 24 hours", "output unit": "%", "reported result": 2.9}

Query: Look up Photostability 24 hours: COc1cc(N2CC[C@@]3(O)C(=O)c4cc(Cl)ccc4N=C23)ccn1 [BPN-0026621]
Response: 61.4

* * *

protocol summary: Photostability, percentage remaining undegraded under illumination or in the dark
protocol conditions: percentage remaining undegraded after 4 hours illumination
measured quantity: Photostability 4 hours (%)
Answers are plain numbers, in %.

Below, each entry is followed by its recorded Photostability 4 hours result.
{"chemical structure": "O=C1c2cc(C(F)(F)F)ccc2N=C2N(c3ccc(Cl)cc3)CC[C@@]12O", "Photostability 4 hours (%)": 51.1}
{"chemical structure": "Cc1ccc2c(c1)C(=O)[C@]1(O)CCN(c3ccc4ncc(C)cc4c3)C1=N2", "Photostability 4 hours (%)": 95.5}

Kindly review the next compound as well.
Query: Look up Photostability 4 hours: Cc1ccc2c(c1)C(=O)[C@]1(O)CCN(c3ccc4nc(C)ccc4c3)C1=N2
Response: 91.9

* * *

assay system: Bovine cardiac myosin (Bos taurus (Bovine))
protocol summary: Cardiac muscle myosin II actin-activated ATPase assay (NADH-coupled)
Format: biochemical
protocol conditions: 300 nM cardiac myosin, 10 μM actin, 25° C.; read-out: CMMII KI
Kindly state Ki for each of the entries shown.

{"molecule": "CCc1cc2c(s1)N=C1N(c3ccc(C#N)cc3)CC[C@@]1(O)C2=O [BPN-0027038]", "assay system": "Bovine cardiac myosin (Bos taurus (Bovine))", "Ki": "17 µM"}
{"molecule": "Cc1ccc2c(c1)C(=O)[C@]1(O)CCN(c3ccc4nc(C)ccc4c3)C1=N2 [BPN-0027289]", "assay system": "Bovine cardiac myosin (Bos taurus (Bovine))", "Ki": "50 µM"}
{"molecule": "O=C1c2cc(C(F)(F)F)ccc2N=C2N(c3ccccc3)CC[C@@]12O [BPN-0025110]", "assay system": "Bovine cardiac myosin (Bos taurus (Bovine))", "Ki": "22 µM"}
{"molecule": "CCc1cc2c(s1)N=C1N(c3ccc(C)cc3)CC[C@@]1(O)C2=O [BPN-0026774]", "assay system": "Bovine cardiac myosin (Bos taurus (Bovine))", "Ki": "8.9 µM"}

Report Ki for each item below.
1. Cc1ncc(N2CC[C@@]3(O)C(=O)c4cc(C)c(C)cc4N=C23)s1 [BPN-0026693]
2. Cc1cc2c(cc1F)C(=O)[C@]1(O)CCN(c3cnn(C)c3)C1=N2 [BPN-0026746]
3. Cc1cc2c(cc1C)C(=O)[C@]1(O)CCN(c3ccc4c(c3)OCCC4)C1=N2 [BPN-0028924]
4. Cc1ccc(N2CC[C@@]3(O)C(=O)c4cc(C)c(C(F)(F)F)cc4N=C23)cc1 [BPN-0026819]

Response:
1: 3.5 µM; 2: 17 µM; 3: 20 µM; 4: 50 µM

* * *

assay system: Bovine cardiac myosin (Bos taurus (Bovine))
protocol summary: Cardiac muscle myosin II actin-activated ATPase assay (NADH-coupled)
Assay type: biochemical
protocol conditions: cardiac myosin II Ki over nonmuscle myosin II EC50
// map Ratio CMMII:NMII Ki/EC50 onto a label; ranges low: < 5; medium: ≥ 5 and < 10; high: ≥ 10

Answered cases to consult:
{"compound": "Cc1cc2c(cc1C)C(=O)[C@]1(O)CCN(c3cnc(C)c(C)c3)C1=N2 [BPN-0028694]", "qualitative label": "medium"}
{"compound": "Cc1cc2cc(N3CC[C@@]4(O)C(=O)c5cc(C)c(C)cc5N=C34)ccc2cn1 [BPN-0027161]", "qualitative label": "high"}

Query: Could you tell me which band Cn1cc(N2CC[C@@]3(O)C(=O)c4cc(C(F)(F)F)ccc4N=C23)cn1 [BPN-0026413] belongs to?
Response: low

Query: Could you tell me which band CCc1cc2c(s1)N=C1N(c3ccc(OC)cc3)CC[C@@]1(O)C2=O [BPN-0026881] belongs to?
Response: medium

* * *

protocol summary: Photostability, percentage remaining undegraded under illumination or in the dark
protocol conditions: percentage remaining undegraded in the dark, 24 h
measured quantity: Photostability Dark (24 h) (%)
Answers are plain numbers, in %.

Report Photostability Dark (24 h) for each item below.
1. Cc1nc2cc(N3CC[C@@]4(O)C(=O)c5cc(C)c(C)cc5N=C34)ccc2o1
2. Cc1cc2c(cc1C)C(=O)[C@]1(O)CCN(c3ccc4nc(N)ccc4c3)C1=N2

Response:
1. 94.4
2. 97.8

* * *

protocol summary: Photostability, percentage remaining undegraded under illumination or in the dark
protocol conditions: percentage remaining undegraded after 24 hours illumination
// map Photostability 24 hours onto a label; ranges category 1 (below 8%), category 2 (8% to below 60%), category 3 (60% or more)

Answered cases to consult:
{"compound": "Cc1cc2c(s1)C(=O)[C@]1(O)CCN(c3ccc(C#N)c(C)c3)C1=N2", "qualitative label": "category 3"}
{"compound": "Cc1cc2c(cc1C)C(=O)[C@]1(O)CCN(c3ccc4nnsc4c3)C1=N2", "qualitative label": "category 3"}

Query: Could you tell me which band O=C1c2cc(C(F)(F)F)ccc2N=C2N(c3ccc4ccoc4c3)CC[C@@]12O belongs to?
Response: category 2

Query: Could you tell me which band Cc1cc2c(cc1C)C(=O)[C@]1(O)CCN(c3ccc4nc(C)c(C)cc4c3)C1=N2 belongs to?
Response: category 2

Query: Could you tell me which band Cc1sc2c(c1C)C(=O)[C@]1(O)CCN(c3ccc(I)cc3)C1=N2 belongs to?
Response: category 2

Query: Could you tell me which band CCc1ccc2cc(N3CC[C@@]4(O)C(=O)c5cc(C)c(C)cc5N=C34)ccc2n1 belongs to?
Response: category 1

Query: Could you tell me which band Cc1ccc2c(c1)C(=O)[C@]1(O)CCN(c3ccc4sccc4c3)C1=N2 belongs to?
Response: category 1

Query: Could you tell me which band COc1ccc(N2CC[C@@]3(O)C(=O)c4cc(F)c(C)cc4N=C23)cc1 belongs to?
Response: category 1

* * *

assay system: Bovine cardiac myosin (Bos taurus (Bovine), UniProt Q9BE39)
Sequence (Q9BE39 whole entry): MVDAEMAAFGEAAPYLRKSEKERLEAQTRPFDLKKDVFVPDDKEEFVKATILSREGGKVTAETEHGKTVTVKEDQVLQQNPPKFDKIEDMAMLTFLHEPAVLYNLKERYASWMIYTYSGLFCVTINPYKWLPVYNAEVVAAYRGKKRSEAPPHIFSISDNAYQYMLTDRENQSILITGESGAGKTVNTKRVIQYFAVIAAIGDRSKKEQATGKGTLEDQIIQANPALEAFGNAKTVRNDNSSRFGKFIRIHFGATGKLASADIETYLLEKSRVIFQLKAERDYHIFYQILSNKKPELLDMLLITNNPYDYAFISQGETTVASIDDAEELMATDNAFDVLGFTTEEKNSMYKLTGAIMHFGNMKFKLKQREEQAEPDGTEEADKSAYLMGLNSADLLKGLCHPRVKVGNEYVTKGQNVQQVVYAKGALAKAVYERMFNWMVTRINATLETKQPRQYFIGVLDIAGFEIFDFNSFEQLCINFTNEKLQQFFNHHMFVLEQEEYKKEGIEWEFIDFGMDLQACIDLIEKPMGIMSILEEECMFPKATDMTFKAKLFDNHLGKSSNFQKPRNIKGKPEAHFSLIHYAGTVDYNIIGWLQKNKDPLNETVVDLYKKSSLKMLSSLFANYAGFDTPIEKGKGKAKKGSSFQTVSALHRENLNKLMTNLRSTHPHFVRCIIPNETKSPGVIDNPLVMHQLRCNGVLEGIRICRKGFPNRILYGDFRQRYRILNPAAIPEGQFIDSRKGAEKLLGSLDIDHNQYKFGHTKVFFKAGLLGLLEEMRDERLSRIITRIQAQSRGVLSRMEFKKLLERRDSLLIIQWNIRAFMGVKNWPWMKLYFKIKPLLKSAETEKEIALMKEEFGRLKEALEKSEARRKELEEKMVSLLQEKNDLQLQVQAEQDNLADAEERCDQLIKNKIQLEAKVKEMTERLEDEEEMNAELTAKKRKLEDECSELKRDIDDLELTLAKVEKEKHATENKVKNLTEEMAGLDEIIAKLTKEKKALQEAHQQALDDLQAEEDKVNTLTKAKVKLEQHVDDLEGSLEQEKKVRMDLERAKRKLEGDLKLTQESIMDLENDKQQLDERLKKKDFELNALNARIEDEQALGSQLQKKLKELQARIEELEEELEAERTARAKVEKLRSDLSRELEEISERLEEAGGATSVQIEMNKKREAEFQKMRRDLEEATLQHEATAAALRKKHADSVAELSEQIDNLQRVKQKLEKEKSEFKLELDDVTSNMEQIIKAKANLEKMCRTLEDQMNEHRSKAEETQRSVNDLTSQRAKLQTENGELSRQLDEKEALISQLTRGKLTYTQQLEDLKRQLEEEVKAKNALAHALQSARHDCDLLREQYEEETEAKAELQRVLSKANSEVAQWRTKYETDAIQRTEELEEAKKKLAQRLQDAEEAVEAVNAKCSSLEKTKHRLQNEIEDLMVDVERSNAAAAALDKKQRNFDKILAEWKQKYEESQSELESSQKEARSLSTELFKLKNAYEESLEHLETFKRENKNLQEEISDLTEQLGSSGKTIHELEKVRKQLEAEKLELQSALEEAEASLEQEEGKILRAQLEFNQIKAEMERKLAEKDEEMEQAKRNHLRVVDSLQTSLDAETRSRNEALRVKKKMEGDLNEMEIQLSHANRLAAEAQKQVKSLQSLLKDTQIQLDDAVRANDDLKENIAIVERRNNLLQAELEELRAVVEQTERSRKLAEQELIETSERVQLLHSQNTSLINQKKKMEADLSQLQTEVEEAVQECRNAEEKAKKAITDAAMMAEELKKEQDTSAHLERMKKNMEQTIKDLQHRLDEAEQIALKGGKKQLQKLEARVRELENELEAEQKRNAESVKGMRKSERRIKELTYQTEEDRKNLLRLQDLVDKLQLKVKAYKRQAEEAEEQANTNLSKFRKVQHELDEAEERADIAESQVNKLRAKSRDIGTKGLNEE
Sequence (P85100 whole entry partner): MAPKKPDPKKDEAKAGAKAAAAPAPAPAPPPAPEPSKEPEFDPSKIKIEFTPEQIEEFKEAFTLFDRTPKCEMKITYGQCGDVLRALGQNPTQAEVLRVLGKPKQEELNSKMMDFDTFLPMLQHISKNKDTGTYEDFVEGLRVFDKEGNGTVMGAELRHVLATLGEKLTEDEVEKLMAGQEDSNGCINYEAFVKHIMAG
Sequence (Q3SZE5 whole entry partner): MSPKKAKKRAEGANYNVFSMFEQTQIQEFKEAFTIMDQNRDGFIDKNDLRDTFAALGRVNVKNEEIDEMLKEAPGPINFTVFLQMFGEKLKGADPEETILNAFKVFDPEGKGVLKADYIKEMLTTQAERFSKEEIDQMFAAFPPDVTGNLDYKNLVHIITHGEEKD
protocol summary: Cardiac muscle myosin II actin-activated ATPase assay (NADH-coupled)
Assay type: biochemical
protocol conditions: 300 nM cardiac myosin, 10 μM actin, 25° C.; read-out: CMMII KI
Kindly state log10 Ki for each of the entries shown.
Transform log10 | Measure Ki | Unit µM

Below, each entry is followed by its recorded log10 Ki result.
{"molecule": "Cc1cccc(N2CC[C@@]3(O)C(=O)c4cc(C)ccc4N=C23)c1 [BPN-0025100]", "measured quantity": "log10 Ki", "reported result": 1.68}
{"molecule": "CCc1cc2c(s1)N=C1N(c3ccc4ncccc4c3)CC[C@@]1(O)C2=O [BPN-0027217]", "measured quantity": "log10 Ki", "reported result": 2.20}
{"molecule": "COc1ccc(N2CC[C@@]3(O)C(=O)c4c(sc(C)c4C)N=C23)cc1 [BPN-0026813]", "measured quantity": "log10 Ki", "reported result": 0.20}
{"molecule": "Cc1cc2c(cc1C)C(=O)[C@]1(O)CCN(c3cnn(C)c3)C1=N2 [BPN-0026710]", "measured quantity": "log10 Ki", "reported result": 0.72}

Query: Look up log10 Ki: COc1cc(N2CC[C@@]3(O)C(=O)c4cc(C)ccc4N=C23)ccn1 [BPN-0025919]
Response: 1.26

* * *

Kindly state CMMII/NMII Ratio for each of the entries shown.
assay system: Bovine cardiac myosin (Bos taurus (Bovine))
protocol summary: Cardiac muscle myosin II actin-activated ATPase assay (NADH-coupled)
Format: biochemical
protocol conditions: cardiac Ki relative to NMII EC50
Answers are plain numbers.

Below, each entry is followed by its recorded CMMII/NMII Ratio result.
{"compound": "Cc1ccc2c(c1)C(=O)[C@]1(O)CCN(c3cccc(Cl)c3)C1=N2", "reported result": 9.25}
{"compound": "O=C1c2cc(Cl)ccc2N=C2N(c3ccccc3)CC[C@@]12O", "reported result": 0.76}
{"compound": "Cc1ccc2c(c1)C(=O)[C@]1(O)CCN(c3ccccc3)C1=N2 [Blebbistatin, reference compound]", "reported result": 0.56}

Kindly review the next compound as well.
Query: Look up CMMII/NMII Ratio: Cc1cccc(N2CC[C@@]3(O)C(=O)c4cc(C)ccc4N=C23)c1
Response: 3.51

Taken from patent US20250163056A1.
